// data source = paper PMC9697446

molecular target: EeAChE (Electrophorus electricus, UniProt O42275)
Sequence (O42275 24-633): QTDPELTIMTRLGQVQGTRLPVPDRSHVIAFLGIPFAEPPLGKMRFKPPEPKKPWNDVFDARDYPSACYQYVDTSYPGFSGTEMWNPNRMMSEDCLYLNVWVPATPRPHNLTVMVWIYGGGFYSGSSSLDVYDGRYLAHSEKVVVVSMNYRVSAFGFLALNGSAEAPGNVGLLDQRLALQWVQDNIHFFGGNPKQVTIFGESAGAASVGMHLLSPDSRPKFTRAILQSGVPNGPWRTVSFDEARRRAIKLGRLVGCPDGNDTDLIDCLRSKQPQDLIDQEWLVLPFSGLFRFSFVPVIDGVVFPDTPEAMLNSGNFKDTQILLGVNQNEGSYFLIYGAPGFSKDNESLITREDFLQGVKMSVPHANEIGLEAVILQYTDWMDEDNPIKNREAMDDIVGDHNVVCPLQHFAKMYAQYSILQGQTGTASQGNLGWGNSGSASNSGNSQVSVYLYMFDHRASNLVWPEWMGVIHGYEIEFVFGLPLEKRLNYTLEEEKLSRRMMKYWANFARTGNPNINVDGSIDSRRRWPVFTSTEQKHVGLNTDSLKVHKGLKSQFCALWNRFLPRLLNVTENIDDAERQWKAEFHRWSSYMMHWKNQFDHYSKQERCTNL
EXPERIMENTAL READOUT: IC50 (nM)
All answers are understood in nM, so give the number only.

Before answering, review these 3 worked examples.
Cc1ccc2c(c1)c1c(n2CCC(=O)N2c3ccc(N(C)C)cc3Sc3cc(N(C)C)ccc32)CCCCC1; 4120
CN(C)c1ccc2c(c1)Sc1cc(N(C)C)ccc1N2C(=O)CCn1c2c(c3cc(F)ccc31)CCCC2; 1110
CN(C)c1ccc2c(c1)Sc1cc(N(C)C)ccc1N2 [MBH2, reference compound]; 280

GET /value?item= CN(C)c1ccc2c(c1)Sc1cc(N(C)C)ccc1N2C(=O)CCn1c2c(c3ccccc31)CCCC2 &field=IC50 returns 2420

---

EeAChE (Electrophorus electricus): reported pIC50 for various molecules.
Hey, just a heads up that pIC50 is the negative log base 10 of the concentration in molar.

Before answering, review these 3 worked examples.
CC1CCc2c(c3cc(OC(F)(F)F)ccc3n2CCC(=O)N2c3ccc(N(C)C)cc3Sc3cc(N(C)C)ccc32)C1 (stereo not shown); 6.39
Cc1ccc2c(c1)c1c(n2CCC(=O)N2c3ccc(N(C)C)cc3Sc3cc(N(C)C)ccc32)CCCC1; 5.91
CC1CCc2c(c3cc(C(F)(F)F)ccc3n2CCC(=O)N2c3ccc(N(C)C)cc3Sc3cc(N(C)C)ccc32)C1 (stereo not shown); 6.10

From here, focus on the item given below.
pIC50 value, target or system EeAChE (Electrophorus electricus), for CN(C)c1ccc2c(c1)Sc1cc(N(C)C)ccc1N2C(=O)CCn1c2c(c3ccccc31)CCCCC2 : 5.57

---

Assay: ABTS radical cation scavenging assay
Details: 50% reduction of ABTS radical; 1 h incubation; means ± SEM (n = 3)
Description: The ABTS assay is based on the direct binding of a model ABTS radical cation (2,2′-azino-bis-(3-ethylbenzothiazoline-6-sulfonate), ABTS^•+) by antioxidants. The measurements were performed as previously described in detail. The radical scavenging activity was expressed as TEAC values (Trolox equivalent antioxidant capacity) and determined as the ratio between the slopes obtained from the linear correlation of the ABTS radical absorbance with the concentrations of the test compounds and Trolox. […]
In this section, each of the compounds is paired with its reported pIC50.
Hey, just a heads up that pIC50 is the negative log base 10 of the concentration in molar.

COc1ccc2c(c1)c1c(n2CCC(=O)N2c3ccc(N(C)C)cc3Sc3cc(N(C)C)ccc32)CCCC1; 4.41
CC1CCc2c(c3cc(C(F)(F)F)ccc3n2CCC(=O)N2c3ccc(N(C)C)cc3Sc3cc(N(C)C)ccc32)C1 (stereo not shown); 4.51

GET /value?item= Oc1ccccc1O [Catechol, catechol, reference compound] &field=pIC50 returns 4.78

GET /value?item= Cc1c(C)c2c(c(C)c1O)CCC(C)(C(=O)O)O2 (stereo not shown) [Trolox, reference compound] &field=pIC50 returns 4.69

---

target: equine serum BChE (Equus caballus, UniProt P81908); construct: the equine serum BChE, and the porcine liver CES; experiment: biochemical; conditions: IC50 ± SEM, n = 3
Sequence (P81908 whole entry): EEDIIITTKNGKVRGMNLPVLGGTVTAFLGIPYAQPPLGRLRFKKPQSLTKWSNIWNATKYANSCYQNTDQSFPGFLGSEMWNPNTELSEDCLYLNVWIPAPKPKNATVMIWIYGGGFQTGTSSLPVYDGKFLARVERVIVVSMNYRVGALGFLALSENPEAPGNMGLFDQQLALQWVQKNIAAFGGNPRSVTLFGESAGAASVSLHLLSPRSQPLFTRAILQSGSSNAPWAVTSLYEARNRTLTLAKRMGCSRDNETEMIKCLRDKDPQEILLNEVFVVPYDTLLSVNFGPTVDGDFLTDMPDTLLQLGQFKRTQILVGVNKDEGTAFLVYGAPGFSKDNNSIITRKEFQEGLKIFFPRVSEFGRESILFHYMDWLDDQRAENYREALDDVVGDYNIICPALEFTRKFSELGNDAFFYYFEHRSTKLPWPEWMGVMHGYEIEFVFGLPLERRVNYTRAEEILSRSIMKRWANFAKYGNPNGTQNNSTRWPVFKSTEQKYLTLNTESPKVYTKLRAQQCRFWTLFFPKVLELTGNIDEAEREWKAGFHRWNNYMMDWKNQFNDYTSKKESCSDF
IC50 strictly less than 20 µM = MET. Otherwise NOT MET.

CN(C)c1ccc2c(c1)Sc1cc(N(C)C)ccc1N2C(=O)CCn1c2c(c3cc(OC(F)(F)F)ccc31)CCCCC2; NOT MET

Input Cc1ccc2c(c1)c1c(n2CCC(=O)N2c3ccc(N(C)C)cc3Sc3cc(N(C)C)ccc32)CCCCCC1 ; condition: IC50 strictly below 20 µM. Does it hold?
MET

Input CN(C)c1ccc2c(c1)Sc1cc(N(C)C)ccc1N2C(=O)CCn1c2c(c3ccccc31)CCCCCC2 ; condition: IC50 strictly below 20 µM. Does it hold?
NOT MET

Input CN(C)c1ccc2c(c1)Sc1cc(N(C)C)ccc1N2C(=O)CCn1c2c(c3cc(F)ccc31)CCCC2 ; condition: IC50 strictly below 20 µM. Does it hold?
MET

Input Cc1ccc2c(c1)c1c(n2CCC(=O)N2c3ccc(N(C)C)cc3Sc3cc(N(C)C)ccc32)CCCC1 ; condition: IC50 strictly below 20 µM. Does it hold?
NOT MET

Input COc1ccc2c(c1)c1c(n2CCC(=O)N2c3ccc(N(C)C)cc3Sc3cc(N(C)C)ccc32)CCCC1 ; condition: IC50 strictly below 20 µM. Does it hold?
NOT MET

---

biological target: AChE (Homo sapiens, UniProt P22303)
Sequence (P22303 32-588 isoform P22303-2): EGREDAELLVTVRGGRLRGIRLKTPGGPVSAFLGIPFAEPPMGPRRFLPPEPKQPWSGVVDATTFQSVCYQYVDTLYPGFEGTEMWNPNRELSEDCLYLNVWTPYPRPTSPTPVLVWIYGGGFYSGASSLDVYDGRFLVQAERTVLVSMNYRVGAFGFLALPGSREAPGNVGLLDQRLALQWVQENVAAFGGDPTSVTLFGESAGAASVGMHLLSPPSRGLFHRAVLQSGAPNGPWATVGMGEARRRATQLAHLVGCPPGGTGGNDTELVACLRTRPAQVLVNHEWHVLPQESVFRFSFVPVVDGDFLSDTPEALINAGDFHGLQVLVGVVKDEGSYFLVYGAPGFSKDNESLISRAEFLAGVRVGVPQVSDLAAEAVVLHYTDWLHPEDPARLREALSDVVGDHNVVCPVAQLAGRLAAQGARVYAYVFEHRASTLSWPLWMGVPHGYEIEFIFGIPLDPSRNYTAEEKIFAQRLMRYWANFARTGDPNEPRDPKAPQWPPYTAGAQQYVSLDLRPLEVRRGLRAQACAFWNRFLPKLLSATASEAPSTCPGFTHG
In this section, each of the molecules is paired with its reported Ki.
All answers are understood in µM, so give the number only.

Before answering, review these 2 worked examples.
CC1CCc2c(c3cc(OC(F)(F)F)ccc3n2CCC(=O)N2c3ccc(N(C)C)cc3Sc3cc(N(C)C)ccc32)C1 (stereo not drawn); 1.12
CN(C)c1ccc2c(c1)Sc1cc(N(C)C)ccc1N2C(=O)CCn1c2c(c3ccccc31)CCCCCC2; 1.06

From here, focus on the item given below.
Ki value, target or system AChE (Homo sapiens, UniProt P22303), for Cc1ccc2c(c1)c1c(n2CCC(=O)N2c3ccc(N(C)C)cc3Sc3cc(N(C)C)ccc32)CCCC1 : 1.98

---

molecular target: EeAChE PAS (Electrophorus electricus); construct: purchased Sigma-Aldrich type VI-S; test: biochemical; type: binding; conditions: compound 3 µM; EeAChE 7 µM, PI 8 µM; means ± SEM (n = 3); read-out: PI Displacement, 3 µM
Sequence (O42275 24-633): as the sequence (O42275 24-633) above
In this section, each of the compounds is paired with its reported inhibition at 3 µM.
All answers are understood in %, so give the number only.

CC1CCc2c(c3cc(C(F)(F)F)ccc3n2CCC(=O)N2c3ccc(N(C)C)cc3Sc3cc(N(C)C)ccc32)C1 (stereo not shown) [Compound 4g]; 20.9
Cc1ccc2c(c1)c1c(n2CCC(=O)N2c3ccc(N(C)C)cc3Sc3cc(N(C)C)ccc32)CCCCC1 [Compound 4k]; 12.1
CN(C)c1ccc2c(c1)Sc1cc(N(C)C)ccc1N2C(=O)CCn1c2c(c3cc(OC(F)(F)F)ccc31)CCCCC2 [Compound 4l]; 14.9

GET /value?item= CC1CCc2c(c3cc(OC(F)(F)F)ccc3n2CCC(=O)N2c3ccc(N(C)C)cc3Sc3cc(N(C)C)ccc32)C1 (stereo not shown) [Compound 4i] &field=inhibition at 3 µM returns 20.4

---

test: ABTS radical cation scavenging assay; conditions: 50% reduction of ABTS radical; 1 h incubation; means ± SEM (n = 3)
In this section, each of the compounds is paired with its reported pIC50.
Hey, just a heads up that pIC50 is the negative log base 10 of the concentration in molar.

Before answering, review these 4 worked examples.
CN(C)c1ccc2c(c1)Sc1cc(N(C)C)ccc1N2C(=O)CCn1c2c(c3ccccc31)CCC2; 4.68
CN(C)c1ccc2c(c1)Sc1cc(N(C)C)ccc1N2C(=O)CCn1c2c(c3ccccc31)CCCCCC2; 4.78
COc1ccc2c(c1)c1c(n2CCC(=O)N2c3ccc(N(C)C)cc3Sc3cc(N(C)C)ccc32)CCC(C)C1 (centres unmarked); 4.86
CN(C)c1ccc2c(c1)Sc1cc(N(C)C)ccc1N2C(=O)CCn1c2c(c3ccccc31)CCCC2; 4.61

From here, focus on the item given below.
GET /value?item= Cc1ccc2c(c1)c1c(n2CCC(=O)N2c3ccc(N(C)C)cc3Sc3cc(N(C)C)ccc32)CCCC1 &field=pIC50 returns 4.75

---

In this section, each of the compounds is paired with its reported pIC50.
target: equine serum BChE (Equus caballus, UniProt P81908); construct: the equine serum BChE, and the porcine liver CES; test: biochemical; conditions: IC50 ± SEM, n = 3
Hey, just a heads up that pIC50 is the negative log base 10 of the concentration in molar.

GET /value?item= Cc1ccc2c(c1)c1c(n2CCC(=O)N2c3ccc(N(C)C)cc3Sc3cc(N(C)C)ccc32)CCCCC1 [Compound 4k] &field=pIC50 returns 4.65

---

target: UniProt:O42275
IC50 strictly less than 2000 nM = yes. Otherwise no.

// below: answered compounds
COc1ccc2c(c1)c1c(n2CCC(=O)N2c3ccc(N(C)C)cc3Sc3cc(N(C)C)ccc32)CCC(C)C1 (stereo not shown) [Compound 4e]; yes
CN(C)c1ccc2c(c1)Sc1cc(N(C)C)ccc1N2C(=O)CCn1c2c(c3cc(OC(F)(F)F)ccc31)CCCCC2 [Compound 4l]; no
CN(C)c1ccc2c(c1)Sc1cc(N(C)C)ccc1N2C(=O)CCn1c2c(c3cc(OC(F)(F)F)ccc31)CCCC2 [Compound 4h]; yes
CN(C)c1ccc2c(c1)Sc1cc(N(C)C)ccc1N2C(=O)CCn1c2c(c3ccccc31)CCC2 [Compound 4a]; no
CN(C)c1ccc2c(c1)Sc1cc(N(C)C)ccc1N2C(=O)CCn1c2c(c3ccccc31)CCCCCC2 [Compound 4m]; yes

Input COc1ccc2c(c1)c1c(n2CCC(=O)N2c3ccc(N(C)C)cc3Sc3cc(N(C)C)ccc32)CCCC1 [Compound 4d] ; condition: IC50 strictly below 2000 nM. Does it hold?
no

Input Cc1ccc2c(c1)c1c(n2CCC(=O)N2c3ccc(N(C)C)cc3Sc3cc(N(C)C)ccc32)CCCCCC1 [Compound 4n] ; condition: IC50 strictly below 2000 nM. Does it hold?
yes
